Source listed as patent US12178842B2.

- EXPERIMENTAL TARGET: PCSK9 (Homo sapiens)
- Construct: biotin (biotinylated); purchased
- PROTOCOL: PCSK9 Alexa FRET Ultra TR-FRET assay
- Assay type: binding
- CONDITION DESCRIPTION: Ki Ultra, calculated from IC50 and KD of AF cyclic peptide; 0.5 nM PCSK9, 960 nM AF cyclic peptide; read-out: Alexa FRET Ultra TR-FRET
MEASURED PROPERTY: pKi
The scale used: pKi is minus the common logarithm of the concentration in molar units.

{"SMILES DATA": "COc1ccc(C[C@@H]2NC(=O)[C@H]([C@@H](C)O)NC(=O)[C@@H]3[C@@H]4CCN3C(=O)[C@@H]3Cc5cn(c6ccc(F)cc56)CCCCCCN(Cc5ccc(cc5)CCNC(=O)[C@]5(C)CCCN5C2=O)C(=O)CCC(=O)N[C@@H](C)C(=O)N[C@H](CNC(=O)COCCOCCNC(=O)CCOCCOCC[N+](C)(C)CCNC(=O)COCCOCCNC(=O)COCCOCCNC(=O)CC[C@H](NC(=O)CCCCCCCCCCCCCCCCC(=O)O)C(=O)O)C(=O)N[C@@H](Cc2cccc(c2)CNC(=O)CO4)C(=O)N3)cc1", "REPORTED RESULT": 10.96}

In the following, a different compound is considered.
Given the compound CCCCCC/C=C\CCCCCCCC(=O)N[C@@H](CCC(=O)NCCOCCOCC(=O)NCCOCCOCC(=O)NCC[N+](C)(C)CCCCCC(=O)NC[C@H]1NC(=O)[C@H](C)NC(=O)CCC(=O)N2CCCCCCn3cc(c4cc(F)ccc43)C[C@@H]3NC(=O)[C@H](Cc4cccc(c4)CNC(=O)CO[C@H]4CCN(C3=O)[C@@H]4C(=O)N[C@@H]([C@@H](C)O)C(=O)N[C@@H](Cc3ccc(OC)cc3)C(=O)N3CCC[C@@]3(C)C(=O)NCCc3ccc(cc3)C2)NC1=O)C(=O)O and test system PCSK9 (Homo sapiens), the measured pKi is 12.00

---

- EXPERIMENTAL TARGET: PCSK9 (Homo sapiens, UniProt Q8NBP7)
- Construct: biotin (biotinylated); purchased
- Sequence (Q8NBP7 153-692): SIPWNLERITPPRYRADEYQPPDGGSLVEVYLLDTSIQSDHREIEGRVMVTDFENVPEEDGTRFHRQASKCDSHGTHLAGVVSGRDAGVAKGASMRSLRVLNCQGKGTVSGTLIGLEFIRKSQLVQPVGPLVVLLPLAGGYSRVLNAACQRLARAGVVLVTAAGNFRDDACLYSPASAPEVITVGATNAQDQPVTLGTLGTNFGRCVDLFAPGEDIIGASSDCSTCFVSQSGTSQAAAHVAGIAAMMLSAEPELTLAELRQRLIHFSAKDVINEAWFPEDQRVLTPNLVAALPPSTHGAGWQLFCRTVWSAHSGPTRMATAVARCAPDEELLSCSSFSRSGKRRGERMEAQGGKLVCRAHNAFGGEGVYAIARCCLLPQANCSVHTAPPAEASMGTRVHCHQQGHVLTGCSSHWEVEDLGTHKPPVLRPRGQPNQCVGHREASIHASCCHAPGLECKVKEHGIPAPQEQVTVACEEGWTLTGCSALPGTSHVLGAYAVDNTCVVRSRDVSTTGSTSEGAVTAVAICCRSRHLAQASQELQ
- PROTOCOL: PCSK9 Alexa FRET Standard TR-FRET assay
- Assay type: binding
- CONDITION DESCRIPTION: Ki calculated from IC50 and KD of AF cyclic peptide Reagent A; 0.5 nM PCSK9, 20 nM AF cyclic peptide; read-out: Alexa FRET Stdt TR-FRET
pKi: −log10 of the molar value.
MEASURED PROPERTY: pKi

Given the compound COc1ccc(C[C@@H]2NC(=O)[C@H]([C@@H](C)O)NC(=O)[C@@H]3[C@@H]4CCN3C(=O)[C@@H]3Cc5cn(c6ccc(F)cc56)CCCCCCN(Cc5ccc(cc5)CCNC(=O)[C@]5(C)CCCN5C2=O)C(=O)CCC(=O)N[C@@H](C)C(=O)N[C@H](CNC(=O)CCCCC[N+](C)(C)CCNC(=O)COCCOCCNC(=O)COCCOCCNC(=O)CC[C@H](NC(=O)CCCCCCCCCCCCCCCCC(=O)O)C(=O)O)C(=O)N[C@@H](Cc2cccc(c2)CNC(=O)CO4)C(=O)N3)cc1 and test system PCSK9 (Homo sapiens, UniProt Q8NBP7), the measured pKi is > 8.90

---

// reported pKi for each item listed
- EXPERIMENTAL TARGET: PCSK9 (Homo sapiens, UniProt Q8NBP7)
- Construct: biotin (biotinylated); purchased
- PROTOCOL: PCSK9 Alexa FRET Standard TR-FRET assay
- Assay type: binding
- CONDITION DESCRIPTION: Ki calculated from IC50 and KD of AF cyclic peptide Reagent A; 0.5 nM PCSK9, 20 nM AF cyclic peptide; read-out: Alexa FRET Stdt TR-FRET
pKi: −log10 of the molar value.

The cases that follow already have their pKi on record.
{"SMILES DATA": "COc1ccc(C[C@@H]2NC(=O)[C@H]([C@@H](C)O)NC(=O)[C@@H]3[C@@H]4CCN3C(=O)[C@@H]3Cc5cn(c6ccc(F)cc56)CCCCCCN(Cc5ccc(cc5)CCNC(=O)[C@]5(C)CCCN5C2=O)C(=O)CCC(=O)N[C@@H](C)C(=O)N[C@H](CNC(=O)COCCOCCNC(=O)COCCOCCNC(=O)CC[C@H](NC(=O)CCCCCCCCCCCCCCC(=O)O)C(=O)O)C(=O)N[C@@H](Cc2cccc(c2)CNC(=O)CO4)C(=O)N3)cc1", "pKi": "> 8.90"}
{"SMILES DATA": "COc1ccc(C[C@@H]2NC(=O)[C@H]([C@@H](C)O)NC(=O)[C@@H]3[C@@H]4CCN3C(=O)[C@@H]3Cc5cn(c6ccc(F)cc56)CCCCCCN(Cc5ccc(cc5)CCNC(=O)[C@]5(C)CCCN5C2=O)C(=O)CCC(=O)N[C@@H](C)C(=O)N[C@H](CNC(=O)CCOCCOCC[N+](C)(C)CCNC(=O)COCCOCCNC(=O)COCCOCCNC(=O)CC[C@H](NC(=O)CCCCCCCCCCCCCCC(=O)O)C(=O)O)C(=O)N[C@@H](Cc2cccc(c2)CNC(=O)CO4)C(=O)N3)cc1", "pKi": "> 8.90"}
{"SMILES DATA": "COc1ccc(C[C@@H]2NC(=O)[C@H]([C@@H](C)O)NC(=O)[C@@H]3[C@@H]4CCN3C(=O)[C@@H]3Cc5cn(c6ccc(F)cc56)CCCCCCN(Cc5ccc(cc5)CCNC(=O)[C@]5(C)CCCN5C2=O)C(=O)CCC(=O)N[C@@H](C)C(=O)N[C@H](CNC(=O)CCOCCOCC[N+](C)(C)CCNC(=O)COCCOCCNC(=O)COCCOCCNC(=O)CC[C@H](NC(=O)CCCCCCCCCCCCCCCCC(=O)O)C(=O)O)C(=O)N[C@@H](Cc2cccc(c2)CNC(=O)CO4)C(=O)N3)cc1", "pKi": "> 8.90"}
{"SMILES DATA": "COc1ccc(C[C@@H]2NC(=O)[C@H]([C@@H](C)O)NC(=O)[C@@H]3[C@@H]4CCN3C(=O)[C@@H]3Cc5cn(c6ccc(F)cc56)CCCCCCN(Cc5ccc(cc5)CCNC(=O)[C@]5(C)CCCN5C2=O)C(=O)CCC(=O)N[C@@H](C)C(=O)N[C@H](CNC(=O)COCCOCC[N+](C)(C)CCNC(=O)COCCOCCNC(=O)COCCOCCNC(=O)CC[C@H](NC(=O)CCCCCCCCCCCCCCCCC(=O)O)C(=O)O)C(=O)N[C@@H](Cc2cccc(c2)CNC(=O)CO4)C(=O)N3)cc1", "pKi": "> 8.90"}

Given the compound COc1ccc(C[C@@H]2NC(=O)[C@H]([C@@H](C)O)NC(=O)[C@@H]3[C@@H]4CCN3C(=O)[C@@H]3Cc5cn(c6ccc(F)cc56)CCCCCCN(Cc5ccc(cc5)CCNC(=O)[C@]5(C)CCCN5C2=O)C(=O)CCC(=O)N[C@@H](CNC(=O)COCCOCCNC(=O)CC[C@H](NC(=O)CCOCCOCC[N+](C)(C)CCNC(=O)COCCOCCNC(=O)COCCOCCNC(=O)CC[C@H](NC(=O)CCCCCCCCCCCCCCCCC(=O)O)C(=O)O)C(=O)O)C(=O)N[C@H](C)C(=O)N[C@@H](Cc2cccc(c2)CNC(=O)CO4)C(=O)N3)cc1 and test system PCSK9 (Homo sapiens, UniProt Q8NBP7), the measured pKi is > 8.90

---

- EXPERIMENTAL TARGET: PCSK9 (Homo sapiens)
- Construct: biotin (biotinylated); purchased
- PROTOCOL: PCSK9 Alexa FRET Standard TR-FRET assay
- Format: binding
- CONDITION DESCRIPTION: Ki calculated from IC50 and KD of AF cyclic peptide Reagent A; 0.5 nM PCSK9, 20 nM AF cyclic peptide; read-out: Alexa FRET Stdt TR-FRET
MEASURED PROPERTY: Ki

compound COc1ccc(C[C@@H]2NC(=O)[C@H]([C@@H](C)O)NC(=O)[C@@H]3[C@@H]4CCN3C(=O)[C@@H]3Cc5cn(c6ccc(F)cc56)CCCCCCN(Cc5ccc(cc5)CCNC(=O)[C@]5(C)CCCN5C2=O)C(=O)CCC(=O)N[C@@H](C)C(=O)N[C@H](CNC(=O)COCCOCCNC(=O)COCCOCCNC(=O)CC[C@H](NC(=O)CC[C@H](NC(=O)CCCCCCCCCCCCCCC(=O)O)C(=O)O)C(=O)O)C(=O)N[C@@H](Cc2cccc(c2)CNC(=O)CO4)C(=O)N3)cc1 [Ex-42] , Ki observed: < 1.26 nM

compound COc1ccc(C[C@@H]2NC(=O)[C@H]([C@@H](C)O)NC(=O)[C@@H]3[C@@H]4CCN3C(=O)[C@@H]3Cc5cn(c6ccc(F)cc56)CCCCCCN(Cc5ccc(cc5)CCNC(=O)[C@]5(C)CCCN5C2=O)C(=O)CCC(=O)N[C@@H](C)C(=O)N[C@H](CNC(=O)COCCOCCNC(=O)COCCOCCNC(=O)CC[C@H](NC(=O)CCCCCCCCCCCCCCCCC(=O)O)C(=O)O)C(=O)N[C@@H](Cc2cccc(c2)CNC(=O)CO4)C(=O)N3)cc1 [Ex-18] , Ki observed: < 1.26 nM

compound COc1ccc(C[C@@H]2NC(=O)[C@H]([C@@H](C)O)NC(=O)[C@@H]3[C@@H]4CCN3C(=O)[C@@H]3Cc5cn(c6ccc(F)cc56)CCCCCCN(Cc5ccc(cc5)CCNC(=O)[C@]5(C)CCCN5C2=O)C(=O)CCC(=O)N[C@@H](C)C(=O)N[C@H](CNC(=O)CCOCCOCC[N+](C)(C)CCNC(=O)CC[C@H](NC(=O)CCCCCCCCCCCCCCCCC(=O)O)C(=O)O)C(=O)N[C@@H](Cc2cccc(c2)CNC(=O)CO4)C(=O)N3)cc1 [Ex-7] , Ki observed: < 1.26 nM
